Catalogue of compounds with associated Hb
Organism: Rattus norvegicus
test: Open TG-GATES - Regimen: Daily Repeat
Type: toxicity, organism-based, Sprague-Dawley
Set-up: regimen Daily Repeat, gender Male, age 6 weeks
measurement-context: in vivo, po, 100 mg/kg, 72 h, tissue Blood, route gavage, dose level Low, time 3 day
Output spec: scalar in g/dL, unitless text.

Reference set, count: 4
INSERT INTO results (compound, readout_kind, measured_number) VALUES
  ('CCOC(=O)CCC(=O)O[C@H]1[C@H](O[C@@H]2[C@@H](C)[C@H](O[C@H]3C[C@@](C)(OC)[C@@H](O)[C@H](C)O3)[C@@H](C)C(=O)O[C@H](CC)[C@@](C)(O)[C@H](O)[C@@H](C)C(=O)[C@H](C)C[C@@]2(C)O)O[C@H](C)C[C@@H]1N(C)C [ERYTHROMYCIN ETHYLSUCCINATE]', 'Hb', 13.4),
  ('COc1ccc2[nH]c([S+]([O-])Cc3ncc(C)c(OC)c3C)nc2c1 (stereo not given)', 'Hb', 13.1),
  ('NC(N)=Nc1nc(CSCCC(N)=NS(N)(=O)=O)cs1', 'Hb', 13.3),
  ('CCOc1ccc(NC(=O)CC(C)O)cc1 (stereo not given)', 'Hb', 13.8);

Would you kindly look at the next entry?
Req: Given the compound COC1=CC(=O)C[C@@H](C)[C@]12Oc1c(Cl)c(OC)cc(OC)c1C2=O , what is its reported Hb?
Resp: 13.2
